B1: PhoQ; a variant is named by its letters at X, in order, P23837 (parent)
chain: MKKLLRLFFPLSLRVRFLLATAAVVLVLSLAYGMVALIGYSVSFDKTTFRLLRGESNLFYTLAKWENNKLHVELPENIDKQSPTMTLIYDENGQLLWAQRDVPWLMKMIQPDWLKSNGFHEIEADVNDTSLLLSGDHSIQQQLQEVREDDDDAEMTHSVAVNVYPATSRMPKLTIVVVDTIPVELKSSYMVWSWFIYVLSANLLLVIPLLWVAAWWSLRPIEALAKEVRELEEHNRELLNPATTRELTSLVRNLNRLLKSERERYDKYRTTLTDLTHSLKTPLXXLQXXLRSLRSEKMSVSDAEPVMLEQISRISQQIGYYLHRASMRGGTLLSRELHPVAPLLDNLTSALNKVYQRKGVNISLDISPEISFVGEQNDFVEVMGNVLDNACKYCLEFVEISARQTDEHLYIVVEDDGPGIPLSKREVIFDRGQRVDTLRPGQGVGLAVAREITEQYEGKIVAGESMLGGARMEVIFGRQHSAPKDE

variants of: B1; assay: enrichment ratio after two sorts for PhoP signalling (ratio (wild type AVST 3.29)); higher = more functional; details: with PhoP (E. coli)
In all, about 140,000 sequences were measured (“enrichment ratio after two sorts for PhoP signalling”: median about 0, highest 2% from about 11 on). The list comes from a sample in which the highest values are over-represented; it also holds close analogues and randomly drawn sequences.
measured-property: enrichment ratio

- mutation-name: "MIMG"
  result: "≤ 0.25"
- mutation-name: "MVAF"
  result: 8.08
- mutation-name: "AKST"
  result: 6.32
- mutation-name: "THCG"
  result: 5.77
- mutation-name: "MYLH"
  result: "≤ 0.25"
- mutation-name: "LFNF"
  result: "≤ 0.25"
- mutation-name: "QMYQ"
  result: 7.96
- mutation-name: "FFHN"
  result: "≤ 0.25"
- mutation-name: "WVSG"
  result: "≤ 0.25"
- mutation-name: "NVCF"
  result: "≤ 0.25"
- mutation-name: "GNCF"
  result: 6.9
- mutation-name: "DNPC"
  result: "≤ 0.25"
- mutation-name: "VLMY"
  result: "≤ 0.25"
- mutation-name: "EIKT"
  result: "≤ 0.25"
- mutation-name: "TKST"
  result: 15.4
- mutation-name: "SHMW"
  result: 0.684
- mutation-name: "PEMC"
  result: "≤ 0.25"
- mutation-name: "AFVI"
  result: "≤ 0.25"
- mutation-name: "LWPI"
  result: "≤ 0.25"
- mutation-name: "HEDR"
  result: "≤ 0.25"
- mutation-name: "KRKR"
  result: "≤ 0.25"
- mutation-name: "THMG"
  result: 2.89
- mutation-name: "SHMG"
  result: 17.8
- mutation-name: "DMSQ"
  result: "≤ 0.25"
- mutation-name: "SHCG"
  result: 16.6
- mutation-name: "FGDH"
  result: "≤ 0.25"
- mutation-name: "RGND"
  result: "≤ 0.25"
- mutation-name: "FADW"
  result: "≤ 0.25"
- mutation-name: "AQDN"
  result: "≤ 0.25"
- mutation-name: "GMSV"
  result: 6.09
- mutation-name: "RYPH"
  result: "≤ 0.25"
- mutation-name: "WDTG"
  result: "≤ 0.25"
